These measurements were taken from patent US10544147B2.

# TESTED_ON: PI3Kdelta (Homo sapiens (Human), UniProt O00329)
# Sequence (O00329 whole entry, one chain of several, canonical isoform): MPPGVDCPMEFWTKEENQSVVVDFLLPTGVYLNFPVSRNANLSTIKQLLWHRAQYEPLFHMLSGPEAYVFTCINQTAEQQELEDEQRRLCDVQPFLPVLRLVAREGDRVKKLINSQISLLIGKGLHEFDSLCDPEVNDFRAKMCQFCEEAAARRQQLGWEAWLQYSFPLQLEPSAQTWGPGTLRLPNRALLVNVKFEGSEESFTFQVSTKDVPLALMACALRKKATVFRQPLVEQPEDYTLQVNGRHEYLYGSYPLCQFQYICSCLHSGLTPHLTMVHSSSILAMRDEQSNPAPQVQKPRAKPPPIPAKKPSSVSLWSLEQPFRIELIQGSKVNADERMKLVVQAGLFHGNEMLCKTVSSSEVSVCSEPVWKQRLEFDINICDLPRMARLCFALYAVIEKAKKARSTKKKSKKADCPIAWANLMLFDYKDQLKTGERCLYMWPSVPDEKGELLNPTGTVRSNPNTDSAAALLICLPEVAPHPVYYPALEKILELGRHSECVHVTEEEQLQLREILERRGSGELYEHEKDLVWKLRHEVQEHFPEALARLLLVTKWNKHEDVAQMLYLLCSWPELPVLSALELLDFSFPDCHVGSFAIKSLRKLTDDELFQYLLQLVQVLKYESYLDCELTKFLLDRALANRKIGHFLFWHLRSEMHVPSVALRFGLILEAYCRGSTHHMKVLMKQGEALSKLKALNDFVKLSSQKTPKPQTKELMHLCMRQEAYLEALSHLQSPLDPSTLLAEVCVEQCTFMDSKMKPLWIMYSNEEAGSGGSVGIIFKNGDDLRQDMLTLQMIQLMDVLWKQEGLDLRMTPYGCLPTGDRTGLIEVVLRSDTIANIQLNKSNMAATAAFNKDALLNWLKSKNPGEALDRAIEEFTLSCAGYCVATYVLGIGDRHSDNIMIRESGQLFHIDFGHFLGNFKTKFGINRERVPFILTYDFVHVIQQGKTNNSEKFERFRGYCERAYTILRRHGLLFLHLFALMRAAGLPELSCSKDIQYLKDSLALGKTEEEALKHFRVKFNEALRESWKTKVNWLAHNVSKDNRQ
# PROCEDURE_DETAILS: HTRF PI3K biochemical assay, delta isoform
# EXPERIMENTAL_SETUP: 0.3 nM enzyme, 100 uM ATP, 50 uM PIP2; form screened (neutral or TFA salt)
The compounds listed here are annotated with their IC50.
READOUT_NAME: IC50 (nM)

COMPOUND | TESTED_ON | MEASURED_NUMBER
Cc1ncc(-c2nc3c(-c4ccc5c(c4)C4(CCCN4C(=O)C4CC4)C(=O)N5CCN4CCOCC4)ncnc3n2C)cn1 (single isomer, unassigned) | PI3Kdelta (Homo sapiens (Human), UniProt O00329) | 2
CCn1c(-c2cnc(C)nc2)nc2c(-c3ccc4c(c3)C(C)(CC(C)C)NS4(=O)=O)ncnc21 (single isomer, unassigned) [Compound 4-6] | PI3Kdelta (Homo sapiens (Human), UniProt O00329) | 55
CCn1c(-c2cnc(C)nc2)nc2c(-c3ccc4oc(=O)n(C(C)C5CC5)c4c3)ncnc21 (single isomer, unassigned) [Compound 5-5] | PI3Kdelta (Homo sapiens (Human), UniProt O00329) | 42
CCn1c(-c2cnc(C)nc2)nc2c(-c3ccc4[nH]c(=O)n(C(C)C5CC5)c4c3)ncnc21 (single isomer, unassigned) [Compound 5-8] | PI3Kdelta (Homo sapiens (Human), UniProt O00329) | 24
CCn1c(-c2cnc(C)nc2)nc2c(-c3ccc4c(c3)C(C)(NCC(C)C)C(=O)N4)ncnc21 (single isomer, unassigned) [Compound 2-65] | PI3Kdelta (Homo sapiens (Human), UniProt O00329) | 79
CCn1c(-c2cnc(C)nc2)nc2c(-c3ccc4c(c3)C(C)(NC(C)C)C(=O)N4)ncnc21 (single isomer, unassigned) [Compound 2-31] | PI3Kdelta (Homo sapiens (Human), UniProt O00329) | 479

----------
# TESTED_ON: PI3Kdelta (Homo sapiens (Human), UniProt O00329)
# PROCEDURE_DETAILS: HTRF PI3K biochemical assay, delta isoform
# EXPERIMENTAL_SETUP: 0.3 nM enzyme, 100 uM ATP, 50 uM PIP2; form screened (neutral or TFA salt)
# Description: HTRF PI3K Biochemical Assay to Measure Intrinsic Potency of Compound Inhibitors This loss of signal is nonlinear with respect to both increasing product and time. This non-linear detection will impact accuracy of IC50 calculations; therefore, there is a need for a correction factor to obtain more accurate IC50 values. […] All data were calculated using the ratio of acceptor (APC) to donor (Europium) fluorescence in each well of the assay plate. […]
pIC50: −log10 of the molar value.

COMPOUND | pIC50
CCn1c(C(F)F)nc2c(-c3ccc4c(c3)C3(CCCN3C(=O)C3CC3)C(=O)N4)ncnc21 (single isomer, unassigned) [Compound 3-15] | 8.30
CCn1c(-c2cnc(C)nc2)nc2c(-c3ccc4c(c3)C(C)(CC(C)C)C(=O)N4)ncnc21 (single isomer, unassigned) [Compound 1-2] | 6.92
CCn1c(-c2cnc(C)nc2)nc2c(-c3cnc4c(c3)C(C)(CC3CC3)C(=O)N4)ncnc21 (single isomer, unassigned) [Compound 1-15] | 6.65
CCn1c(-c2cnc(C)nc2)nc2c(-c3ccc4c(c3)C(C)(NC(C)C)C(=O)N4)ncnc21 (single isomer, unassigned) [Compound 2-32] | 7.57
Cc1ncc(-c2nc3c(-c4cnc5c(c4)C(C)(CC(C)C)C(=O)N5)ncnc3n2C)cn1 (single isomer, unassigned) [Compound 1-26] | 7.30
CCn1c(-c2cnc(C)nc2)nc2c(-c3ccc4oc(=O)n(C(C)c5ccccc5)c4c3)ncnc21 (single isomer, unassigned) [Compound 5-2] | 7.43
CCn1c(-c2cnc(C)nc2)nc2c(-c3ccc4c(c3)C(C)(CC(C)C)NC4=O)ncnc21 (single isomer, unassigned) [Compound 4-7] | 8.15
CCn1c(-c2cnc(C)nc2)nc2c(-c3ccc4c(c3)C3(CCCN3)C(=O)N4)ncnc21 (single isomer, unassigned) [Compound 3-32] | 6.77
CCn1c(-c2cnc(C)nc2)nc2c(-c3ccc4c(c3)C(Cc3ccccc3)NC4=O)ncnc21 (single isomer, unassigned) [Compound 4-9] | 7.66
Cc1ncc(-c2nc3c(-c4ccc5c(c4)C4(CCCN4C(C)C)C(=O)N5)ncnc3n2C)cn1 (single isomer, unassigned) [Compound 3-13] | 7.35
CCn1c(-c2cnc(C)nc2)nc2c(-c3ccc4c(c3)C3(CCCN3S(=O)(=O)C(F)(F)F)C(=O)N4)ncnc21 (single isomer, unassigned) [Compound 3-22] | 8.40
CCn1c(-c2cnc(C)nc2)nc2c(-c3ccc4c(c3)C(C)(NCC(C)(C)C#N)C(=O)N4)ncnc21 (single isomer, unassigned) [Compound 2-40] | 6.75

----------
The compounds listed here are annotated with their IC50.
# TESTED_ON: PI3Kdelta (Homo sapiens (Human), UniProt O00329)
# PROCEDURE_DETAILS: HTRF PI3K biochemical assay, delta isoform
# EXPERIMENTAL_SETUP: 0.3 nM enzyme, 100 uM ATP, 50 uM PIP2; form screened (neutral or TFA salt)

COMPOUND | IC50 (nM)
CCn1c(-c2cnc(C)nc2)nc2c(-c3ccc4c(c3)C(C)(N(C)C(C)C)C(=O)N4)ncnc21 (racemic) | 46
CCn1c(-c2cnc(C)nc2)nc2c(-c3ccc4c(c3)C(C)(CC3CC3)C(=O)N4C)ncnc21 (single isomer, unassigned) [Compound 1-9] | 17
CCn1c(-c2cnc(C)nc2)nc2c(-c3ccc4c(c3)C(C)(Cc3ccccc3)C(=O)N4C)ncnc21 (single isomer, unassigned) [Compound 1-20] | 477
CCn1c(-c2cnc(C)nc2)nc2c(-c3ccc4c(c3)C(C)(N3C[C@@H](C)O[C@@H](C)C3)C(=O)N4)ncnc21 (single isomer, unassigned) [Compound 2-4] | 5
CCn1c(-c2cnc(C)nc2)nc2c(-c3ccc4c(c3)C3(CCCO3)C(=O)N4)ncnc21 (single isomer, unassigned) [Compound 3-30] | 156
CCn1c(-c2cnc(C)nc2)nc2c(-c3ccc4c(c3)C3(CCN(C(=O)C5CC5)C3)C(=O)N4)ncnc21 (single isomer, unassigned) [Compound 3-6] | 26

----------
The compounds listed here are annotated with their pIC50.
# TESTED_ON: PI3Kdelta (Homo sapiens (Human))
# PROCEDURE_DETAILS: HTRF PI3K biochemical assay, delta isoform
# EXPERIMENTAL_SETUP: 0.3 nM enzyme, 100 uM ATP, 50 uM PIP2; form screened (neutral or TFA salt)
pIC50: −log10 of the molar value.

COMPOUND | TESTED_ON | pIC50
CCn1c(-c2cnc(C)nc2)nc2c(-c3ccc4oc(=O)n(C(C)C5CC5)c4c3)ncnc21 (single isomer, unassigned) [Compound 5-6] | PI3Kdelta (Homo sapiens (Human)) | 8.30
CCn1c(-c2cnc(C)nc2)nc2c(-c3ccc4c(c3)C(C)(NCC3(F)COC3)C(=O)N4)ncnc21 (single isomer, unassigned) [Compound 2-72] | PI3Kdelta (Homo sapiens (Human)) | 8.52
CCn1c(-c2cnc(C)nc2)nc2c(-c3ccc4c(c3)C3(CCCO3)C(=O)N4)ncnc21 (single isomer, unassigned) [Compound 3-31] | PI3Kdelta (Homo sapiens (Human)) | 7.00
CCn1c(-c2cnc(C)nc2)nc2c(-c3ccc4c(c3)C(C)(N3CC(OC)C3)C(=O)N4)ncnc21 (single isomer, unassigned) [Compound 2-78] | PI3Kdelta (Homo sapiens (Human)) | 6.62

----------
The compounds listed here are annotated with their Relative Selectivity versus PI3Kalpha.
# TESTED_ON: PI3Kalpha (Homo sapiens (Human), UniProt P42336)
# Sequence (P42336 whole entry, canonical isoform): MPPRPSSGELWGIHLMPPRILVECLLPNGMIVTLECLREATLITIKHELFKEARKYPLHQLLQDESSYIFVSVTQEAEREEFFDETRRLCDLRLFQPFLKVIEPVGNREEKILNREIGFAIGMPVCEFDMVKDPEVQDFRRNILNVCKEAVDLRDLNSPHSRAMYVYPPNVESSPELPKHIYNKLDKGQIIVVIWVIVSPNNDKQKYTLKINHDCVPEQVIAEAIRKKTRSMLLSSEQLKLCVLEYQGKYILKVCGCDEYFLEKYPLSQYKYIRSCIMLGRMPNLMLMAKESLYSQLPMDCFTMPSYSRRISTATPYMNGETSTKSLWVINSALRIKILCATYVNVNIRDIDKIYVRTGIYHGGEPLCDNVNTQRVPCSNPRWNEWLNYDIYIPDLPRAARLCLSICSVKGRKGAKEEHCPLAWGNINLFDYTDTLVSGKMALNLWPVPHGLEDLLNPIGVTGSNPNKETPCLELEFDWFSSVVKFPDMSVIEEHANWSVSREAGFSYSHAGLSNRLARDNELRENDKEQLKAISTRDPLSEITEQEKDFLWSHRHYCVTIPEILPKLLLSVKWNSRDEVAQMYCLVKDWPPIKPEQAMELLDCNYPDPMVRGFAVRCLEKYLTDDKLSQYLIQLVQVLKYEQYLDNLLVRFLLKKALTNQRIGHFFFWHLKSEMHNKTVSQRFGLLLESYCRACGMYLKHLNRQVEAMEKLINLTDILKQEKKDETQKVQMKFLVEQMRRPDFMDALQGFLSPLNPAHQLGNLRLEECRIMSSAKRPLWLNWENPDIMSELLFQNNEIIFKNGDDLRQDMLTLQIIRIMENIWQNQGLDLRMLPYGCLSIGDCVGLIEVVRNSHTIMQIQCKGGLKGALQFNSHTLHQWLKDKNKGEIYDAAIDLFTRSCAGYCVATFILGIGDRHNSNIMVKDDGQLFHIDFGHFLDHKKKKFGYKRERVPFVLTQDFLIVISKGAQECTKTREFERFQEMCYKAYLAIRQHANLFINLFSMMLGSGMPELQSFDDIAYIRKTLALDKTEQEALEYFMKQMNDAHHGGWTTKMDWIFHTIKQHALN
# Sequence (P27986 whole entry partner, canonical isoform): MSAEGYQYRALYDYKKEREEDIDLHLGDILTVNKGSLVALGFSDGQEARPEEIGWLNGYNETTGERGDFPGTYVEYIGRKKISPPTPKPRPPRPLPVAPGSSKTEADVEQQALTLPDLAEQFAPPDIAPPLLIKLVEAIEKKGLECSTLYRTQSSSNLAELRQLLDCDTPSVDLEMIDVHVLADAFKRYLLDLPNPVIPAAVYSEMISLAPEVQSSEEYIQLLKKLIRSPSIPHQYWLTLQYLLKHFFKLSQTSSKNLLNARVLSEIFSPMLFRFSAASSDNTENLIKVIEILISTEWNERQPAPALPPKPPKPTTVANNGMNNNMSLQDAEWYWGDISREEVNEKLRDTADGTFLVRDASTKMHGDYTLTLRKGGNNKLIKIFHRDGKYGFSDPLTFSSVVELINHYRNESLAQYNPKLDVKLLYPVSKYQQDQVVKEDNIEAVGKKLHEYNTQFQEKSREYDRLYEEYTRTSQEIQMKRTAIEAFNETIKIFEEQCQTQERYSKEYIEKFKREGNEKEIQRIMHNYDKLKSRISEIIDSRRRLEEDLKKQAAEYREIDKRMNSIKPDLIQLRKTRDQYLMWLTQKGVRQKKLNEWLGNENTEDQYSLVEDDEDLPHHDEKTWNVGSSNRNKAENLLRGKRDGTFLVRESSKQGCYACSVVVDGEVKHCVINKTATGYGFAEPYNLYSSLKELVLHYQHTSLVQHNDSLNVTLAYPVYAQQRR
# PROCEDURE_DETAILS: HTRF PI3K biochemical assay, alpha isoform (selectivity versus delta)
# EXPERIMENTAL_SETUP: ratio PI3K-alpha IC50 value/PI3K-delta IC50 value
READOUT_NAME: Relative Selectivity versus PI3Kalpha

COMPOUND | READOUT_NAME | RESULT
CCn1c(-c2cnc(C)nc2)nc2c(-c3ccc4c(c3)C(C)(OCC(C)(C)F)C(=O)N4)ncnc21 (single isomer, unassigned) [Compound 2-55] | Relative Selectivity versus PI3Kalpha | >10
CCn1c(-c2cnc(C)nc2)nc2c(-c3ccc4c(c3)C(C#N)(N3CC(C)(OC)C3)C(=O)N4)ncnc21 (stereo not drawn) [Compound 2-77] | Relative Selectivity versus PI3Kalpha | >10
CCN1CCCC12C(=O)Nc1ccc(-c3ncnc4c3nc(-c3cnc(C)nc3)n4C)cc12 (single isomer, unassigned) [Compound 3-28] | Relative Selectivity versus PI3Kalpha | >10

----------
# TESTED_ON: PI3Kalpha (Homo sapiens (Human), UniProt P42336)
# PROCEDURE_DETAILS: HTRF PI3K biochemical assay, alpha isoform (selectivity versus delta)
# EXPERIMENTAL_SETUP: ratio PI3K-alpha IC50 value/PI3K-delta IC50 value

COMPOUND | TESTED_ON | Relative Selectivity versus PI3Kalpha
CCn1c(-c2cnc(C)nc2)nc2c(-c3ccc4c(c3)C3(CCCN3)C(=O)N4)ncnc21 (single isomer, unassigned) [Compound 3-32] | PI3Kalpha (Homo sapiens (Human), UniProt P42336) | >10
CCn1c(-c2cnc(C)nc2)nc2c(-c3ccc4c(c3)C(C)(N3CC5(CCO5)C3)C(=O)N4)ncnc21 (single isomer, unassigned) [Compound 2-7] | PI3Kalpha (Homo sapiens (Human), UniProt P42336) | >10
CCn1c(-c2cnc(C)nc2)nc2c(-c3ccc4c(c3)C(C)(N3CCC5OCCC53)C(=O)N4)ncnc21 (racemic) [Compound 2-10] | PI3Kalpha (Homo sapiens (Human), UniProt P42336) | >10
CCn1c(-c2cnc(C)nc2)nc2c(-c3ccc4c(c3)CNS4(=O)=O)ncnc21 [Compound 4-13] | PI3Kalpha (Homo sapiens (Human), UniProt P42336) | 9
CCn1c(-c2cnc(C)nc2)nc2c(-c3ccc4oc(=O)n(C(C)c5ccccc5)c4c3)ncnc21 (single isomer, unassigned) [Compound 5-1] | PI3Kalpha (Homo sapiens (Human), UniProt P42336) | >10
CCn1c(-c2cnc(C)nc2)nc2c(-c3ccc4c(c3)C(C)(NC(C)C)C(=O)N4)ncnc21 (single isomer, unassigned) [Compound 2-31] | PI3Kalpha (Homo sapiens (Human), UniProt P42336) | >10
Cc1ncc(-c2nc3c(-c4cnc5c(c4)C(C)(CC(C)C)C(=O)N5)ncnc3n2C)cn1 (single isomer, unassigned) [Compound 1-26] | PI3Kalpha (Homo sapiens (Human), UniProt P42336) | >10
CCn1c(-c2cnc(C)nc2)nc2c(-c3ccc4c(c3)C(C)(NCC(C)C)C(=O)N4)ncnc21 (single isomer, unassigned) [Compound 2-65] | PI3Kalpha (Homo sapiens (Human), UniProt P42336) | >10
CCn1c(-c2cnc(C)nc2)nc2c(-c3ccc4c(c3)C(C)(N3C[C@@H](C)O[C@@H](C)C3)C(=O)N4)ncnc21 (single isomer, unassigned) [Compound 2-4] | PI3Kalpha (Homo sapiens (Human), UniProt P42336) | >10
CCn1c(-c2cnc(C)nc2)nc2c(-c3ccc4c(c3)C(C)(CC(C)C)NS4(=O)=O)ncnc21 (single isomer, unassigned) [Compound 4-6] | PI3Kalpha (Homo sapiens (Human), UniProt P42336) | >10
CCn1c(-c2cnc(C)nc2)nc2c(-c3cnc4c(c3)C(C)(CC(C)C)C(=O)N4)ncnc21 (single isomer, unassigned) [Compound 1-12] | PI3Kalpha (Homo sapiens (Human), UniProt P42336) | >10
CCn1c(-c2cnc(C)nc2)nc2c(-c3ccc4c(c3)C(C)(N3C[C@H]5C[C@@H]3CO5)C(=O)N4)ncnc21 (mixture of isomers) [Compound 2-26] | PI3Kalpha (Homo sapiens (Human), UniProt P42336) | >10
CCn1c(-c2cnc(C)nc2)nc2c(-c3ccc4c(c3)C3(CCCC3)C(=O)N4)ncnc21 [Compound 3-34] | PI3Kalpha (Homo sapiens (Human), UniProt P42336) | >10
CCn1c(-c2cnc(C)nc2)nc2c(-c3ccc4c(c3)C(C)(N3CCOCC35CCC5)C(=O)N4)ncnc21 (racemic) [Compound 2-23] | PI3Kalpha (Homo sapiens (Human), UniProt P42336) | >10
CCn1c(-c2cnc(C)nc2)nc2c(-c3ccc4c(c3)C(C)(N[C@H]3C[C@H](OC)C3)C(=O)N4)ncnc21 (single isomer, unassigned) [Compound 2-82] | PI3Kalpha (Homo sapiens (Human), UniProt P42336) | 8
CCn1c(-c2cnc(C)nc2)nc2c(-c3ccc4c(c3)C3(CCCN3S(=O)(=O)C(F)(F)F)C(=O)N4)ncnc21 (single isomer, unassigned) [Compound 3-21] | PI3Kalpha (Homo sapiens (Human), UniProt P42336) | 2
CCn1c(-c2cnc(C)nc2)nc2c(-c3ccc4c(c3)C(C)(Cc3ccccc3)N(C)C4=O)ncnc21 (single isomer, unassigned) [Compound 4-12] | PI3Kalpha (Homo sapiens (Human), UniProt P42336) | >10
CCn1c(-c2cnc(C)nc2)nc2c(-c3ccc4c(c3)C(C)(N3CC(C)(O)C3)C(=O)N4)ncnc21 (single isomer, unassigned) [Compound 2-80] | PI3Kalpha (Homo sapiens (Human), UniProt P42336) | >10
CCn1c(-c2cnc(C)nc2)nc2c(-c3ccc4c(c3)C(C)(N3CC5(CCOC5)C3)C(=O)N4)ncnc21 (racemic) [Compound 2-28] | PI3Kalpha (Homo sapiens (Human), UniProt P42336) | >10
Cc1ncc(-c2nc3c(-c4cnc5c(c4)C(C)(CC(C)C)C(=O)N5)ncnc3n2C)cn1 (single isomer, unassigned) [Compound 1-27] | PI3Kalpha (Homo sapiens (Human), UniProt P42336) | >10
CCn1c(-c2cnc(C)nc2)nc2c(-c3ccc4c(c3)C3(CCN(C(C)C)C3)C(=O)N4)ncnc21 (single isomer, unassigned) [Compound 3-35] | PI3Kalpha (Homo sapiens (Human), UniProt P42336) | >10
CCn1c(-c2cnc(C)nc2)nc2c(-c3ccc4c(c3)C(C)(N3CC(C)(O)C3)C(=O)N4)ncnc21 (single isomer, unassigned) [Compound 2-81] | PI3Kalpha (Homo sapiens (Human), UniProt P42336) | >10
CCn1c(-c2cnc(C)nc2)nc2c(-c3ccc4c(c3)C(C)(N(C)C(C)C)C(=O)N4)ncnc21 (racemic) [Compound 2-15] | PI3Kalpha (Homo sapiens (Human), UniProt P42336) | >10
CCn1c(-c2cnc(C)nc2)nc2c(-c3ccc4c(c3)C(C)(C3CCOCC3)C(=O)N4)ncnc21 (single isomer, unassigned) [Compound 1-34] | PI3Kalpha (Homo sapiens (Human), UniProt P42336) | 8
